target: Cholinesterase (Homo sapiens, UniProt P06276); assay: Inhibition of human recombinant BuChE by Ellman's assay
Sequence (P06276 whole entry): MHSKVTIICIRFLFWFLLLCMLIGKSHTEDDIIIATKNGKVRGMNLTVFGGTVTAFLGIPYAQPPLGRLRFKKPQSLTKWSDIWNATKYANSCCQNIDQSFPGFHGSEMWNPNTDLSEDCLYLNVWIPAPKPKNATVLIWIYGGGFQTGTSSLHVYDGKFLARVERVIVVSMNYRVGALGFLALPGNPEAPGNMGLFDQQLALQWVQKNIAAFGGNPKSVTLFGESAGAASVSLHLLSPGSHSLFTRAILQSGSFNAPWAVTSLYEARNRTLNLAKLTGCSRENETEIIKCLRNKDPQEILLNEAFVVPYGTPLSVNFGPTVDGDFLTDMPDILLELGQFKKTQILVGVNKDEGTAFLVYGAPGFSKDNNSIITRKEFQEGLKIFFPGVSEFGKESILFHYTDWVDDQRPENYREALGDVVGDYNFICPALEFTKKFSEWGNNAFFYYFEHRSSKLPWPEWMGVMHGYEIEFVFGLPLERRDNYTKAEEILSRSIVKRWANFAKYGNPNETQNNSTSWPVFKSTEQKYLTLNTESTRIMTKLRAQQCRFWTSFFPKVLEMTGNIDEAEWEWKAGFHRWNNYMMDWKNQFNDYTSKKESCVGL
Reported pIC50 values for the following compounds.
In plain terms, pIC50 is the concentration in mol/L turned into minus its base-10 logarithm.

Reported pIC50 for CC1=CC2Cc3nc4ncccc4c(N)c3C(C1)C2 (racemic) : what is it?
6.47

Reported pIC50 for CCC1=CC2Cc3nc4cc(Cl)ccc4c(NCCO)c3C(C1)C2 (racemic) : what is it?
5.44

Reported pIC50 for CC1=CC2Cc3nc4cc(Cl)ccc4c(NCCN=[N+]=[N-])c3C(C1)C2 (racemic) : what is it?
5.63

Reported pIC50 for CCC1=CC2Cc3nc4cc(Cl)ccc4c(NCCN=[N+]=[N-])c3C(C1)C2 (racemic) : what is it?
6.08

====

molecular target: Acetylcholinesterase (Homo sapiens); test: Inhibition of human recombinant AChE […] by Ellman's assay
Sequence (P22303 whole entry): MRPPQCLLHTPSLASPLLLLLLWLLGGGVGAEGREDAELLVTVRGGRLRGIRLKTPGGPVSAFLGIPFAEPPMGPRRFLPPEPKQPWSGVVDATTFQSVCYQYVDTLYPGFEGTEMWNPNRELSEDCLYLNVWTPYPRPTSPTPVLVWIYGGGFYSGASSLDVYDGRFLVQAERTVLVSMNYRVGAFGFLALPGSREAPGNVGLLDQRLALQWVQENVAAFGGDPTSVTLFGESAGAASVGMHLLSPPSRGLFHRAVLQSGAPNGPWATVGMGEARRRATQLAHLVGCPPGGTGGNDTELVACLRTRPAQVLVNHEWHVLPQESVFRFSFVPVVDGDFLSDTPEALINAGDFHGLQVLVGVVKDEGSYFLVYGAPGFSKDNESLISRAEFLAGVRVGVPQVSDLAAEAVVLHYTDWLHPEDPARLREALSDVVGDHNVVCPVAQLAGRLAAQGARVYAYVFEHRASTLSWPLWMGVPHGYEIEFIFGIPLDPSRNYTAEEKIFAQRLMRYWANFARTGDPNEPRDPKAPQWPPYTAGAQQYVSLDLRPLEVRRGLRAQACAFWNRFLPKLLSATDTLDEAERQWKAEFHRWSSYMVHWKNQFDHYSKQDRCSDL
Outcome Measure: pIC50
In plain terms, pIC50 is the concentration in mol/L turned into minus its base-10 logarithm.

Known results for molecules:
{"columns": ["Molecule", "Outcome Measure", "Test Value"],
 "data": [
  ["CCC1=CC2Cc3nc4ncccc4c(N)c3C(C1)C2 (racemic)", "pIC50", 6.07],
  ["CC1=CC2Cc3nc4cc(Cl)ccc4c(NCCN=[N+]=[N-])c3C(C1)C2 (racemic)", "pIC50", 8.06],
  ["CC1=CC2Cc3nc4cc(Cl)ccc4c(Cl)c3C(C1)C2 (racemic)", "pIC50", 4.65]
]}

Reported pIC50 for C#CCCCCCCN1CCc2cc(OC)c(OC)cc2C1c1cccc([N+](=O)[O-])c1 (configuration not stated) : what is it?
5.09

Reported pIC50 for CC1=CC2Cc3nc4cc(Cl)ccc4c(NCCCl)c3C(C1)C2 (racemic) : what is it?
7.36

Reported pIC50 for CC1=CC2Cc3nc4oc(C)c(C)c4c(N)c3C(C1)C2 (racemic) : what is it?
5.32

Reported pIC50 for C#CCCCCCCN1CCc2cc(OC)c(OC)cc2C1c1ccc([N+](=O)[O-])cc1 (configuration not stated) : what is it?
5.53

====

target: UniProt:P22303; test: Inhibition of human recombinant AChE […] by Ellman's assay
pIC50: −log10 of the molar value.
Returns the class for an entry based on its pIC50. Class ranges: lower segment: < 5; middle segment: ≥ 5 and < 6; upper segment: ≥ 6

Band assignment needed for CC1=CC2Cc3nc4[nH]ncc4c(N)c3C(C1)C2 (racemic) please.
lower segment

Band assignment needed for CCC1=CC2Cc3nc4cc(Cl)ccc4c(NCCN=[N+]=[N-])c3C(C1)C2 (racemic) please.
upper segment

Band assignment needed for CC1=CC2Cc3nc4cc(Cl)ccc4c(O)c3C(C1)C2 (racemic) please.
lower segment

Band assignment needed for CCC1=CC2Cc3nc4oc(C5CC5)nc4c(N)c3C(C1)C2 (racemic) please.
lower segment

Band assignment needed for CC1=CC2Cc3nc4cc(Cl)ccc4c(NCCO)c3C(C1)C2 (racemic) please.
upper segment

Band assignment needed for CC1=CC2Cc3nc4oc(C5CCC5)nc4c(N)c3C(C1)C2 (racemic) please.
lower segment

Band assignment needed for CC1=CC2Cc3nc4cc(Cl)ccc4c(NC(=O)CCl)c3C(C1)C2 (racemic) please.
middle segment
